measurementNotes: Dissolution in simulated oral fluids (FaSSGF, FaSSIF, FeSSIF), DISS Profiler, 37 °C, 24 hours
Format: physicochemical
cond: fessif, 37 °C, 24 hours; read-out: Maximum solubility
measuredEndpoint: solubility at 24 h

Q: Input COc1cc(-c2ccc(F)cn2)cc2c(N[C@H](C)c3noc(C)n3)ncnc12 [free base Form A] , output reported solubility at 24 h.
A: 100 µg/mL

====

Each entry below lists one item and its recorded Solubility value.
measurementNotes: Dissolution in Fasted State Simulated Gastric Fluid (FaSSGF), manual experiment, 37 °C
Assay type: physicochemical
cond: 37 °C, first experiment, 10 min
Hi! Could you send only the number? It should be in µg/mL, unit omitted.

Study these solved cases before continuing.
>>> reportedresult("COc1cc(-c2ccc(F)cn2)cc2c(N[C@H](C)c3noc(C)n3)ncnc12 [saccharinate]")
1030
>>> reportedresult("COc1cc(-c2ccc(F)cn2)cc2c(N[C@H](C)c3noc(C)n3)ncnc12 [fumarate]")
3360
>>> reportedresult("COc1cc(-c2ccc(F)cn2)cc2c(N[C@H](C)c3noc(C)n3)ncnc12 [free base Form A]")
7010

Now for a further compound.
Q: Input COc1cc(-c2ccc(F)cn2)cc2c(N[C@H](C)c3noc(C)n3)ncnc12 [oxalate] , output reported Solubility.
A: 90

====

measurementNotes: Dissolution in Fasted State Simulated Gastric Fluid (FaSSGF), manual experiment, 37 °C
Format: physicochemical
cond: 37 °C, second experiment (saturation conc. 170 mg/ml mesylate, 100 mg/ml esylate), 0 min
measuredEndpoint: Solubility (µg/mL)
Hi! Could you send only the number? It should be in µg/mL, unit omitted.

Study these solved cases before continuing.
>>> reportedresult("COc1cc(-c2ccc(F)cn2)cc2c(N[C@H](C)c3noc(C)n3)ncnc12 [fumarate]")
550
>>> reportedresult("COc1cc(-c2ccc(F)cn2)cc2c(N[C@H](C)c3noc(C)n3)ncnc12 [bromide]")
720
>>> reportedresult("COc1cc(-c2ccc(F)cn2)cc2c(N[C@H](C)c3noc(C)n3)ncnc12 [pamoate]")
30
>>> reportedresult("COc1cc(-c2ccc(F)cn2)cc2c(N[C@H](C)c3noc(C)n3)ncnc12 [saccharinate]")
430

Q: Input COc1cc(-c2ccc(F)cn2)cc2c(N[C@H](C)c3noc(C)n3)ncnc12 [mandelate] , output reported Solubility.
A: 1280

====

measurementNotes: Dissolution in simulated oral fluids (FaSSGF, FaSSIF, FeSSIF), DISS Profiler, 37 °C, 24 hours
Assay type: physicochemical
cond: fassif; read-out: Solubility by UPLC/UV/MS at the end of the experiment
Structures can show the parent of a compound that is named as a salt.
measuredEndpoint: solubility at 24 h

Q: Input COc1cc(-c2ccc(F)cn2)cc2c(N[C@H](C)c3noc(C)n3)ncnc12 [mesylate salt Form 2] , output reported solubility at 24 h.
A: 30 µg/mL

====

measurementNotes: Dissolution in Fasted State Simulated Gastric Fluid (FaSSGF), manual experiment, 37 °C
Format: physicochemical
cond: 37 °C, second experiment, 15 min
measuredEndpoint: Solubility (µg/mL)
Hi! Could you send only the number? It should be in µg/mL, unit omitted.

>>> reportedresult("COc1cc(-c2ccc(F)cn2)cc2c(N[C@H](C)c3noc(C)n3)ncnc12 [chloride]")
8630
>>> reportedresult("COc1cc(-c2ccc(F)cn2)cc2c(N[C@H](C)c3noc(C)n3)ncnc12 [free base Form A]")
12770
>>> reportedresult("COc1cc(-c2ccc(F)cn2)cc2c(N[C@H](C)c3noc(C)n3)ncnc12 [mandelate]")
10880
>>> reportedresult("COc1cc(-c2ccc(F)cn2)cc2c(N[C@H](C)c3noc(C)n3)ncnc12 [camphorsulfonate]")
10510
>>> reportedresult("COc1cc(-c2ccc(F)cn2)cc2c(N[C@H](C)c3noc(C)n3)ncnc12 [tosylate]")
4670

Q: Input COc1cc(-c2ccc(F)cn2)cc2c(N[C@H](C)c3noc(C)n3)ncnc12 [bromide] , output reported Solubility.
A: 2520

Q: Input COc1cc(-c2ccc(F)cn2)cc2c(N[C@H](C)c3noc(C)n3)ncnc12 [pamoate] , output reported Solubility.
A: 4890

====

measurementNotes: Dissolution in Fasted State Simulated Gastric Fluid (FaSSGF), manual experiment, 37 °C
Format: physicochemical
cond: 37 °C, first experiment, 60 min
Where a name gives a salt, the structure may show the parent alone.
Each entry below lists one item and its recorded Solubility value.

>>> reportedresult("COc1cc(-c2ccc(F)cn2)cc2c(N[C@H](C)c3noc(C)n3)ncnc12 [esylate salt Form 1]")
"≥ 25000 µg/mL"
>>> reportedresult("COc1cc(-c2ccc(F)cn2)cc2c(N[C@H](C)c3noc(C)n3)ncnc12 [mesylate salt Form 2]")
"≥ 25000 µg/mL"
>>> reportedresult("COc1cc(-c2ccc(F)cn2)cc2c(N[C@H](C)c3noc(C)n3)ncnc12 [fumarate]")
"3580 µg/mL"
>>> reportedresult("COc1cc(-c2ccc(F)cn2)cc2c(N[C@H](C)c3noc(C)n3)ncnc12 [saccharinate]")
"1020 µg/mL"

Q: Input COc1cc(-c2ccc(F)cn2)cc2c(N[C@H](C)c3noc(C)n3)ncnc12 [free base Form A] , output reported Solubility.
A: 6890 µg/mL

Q: Input COc1cc(-c2ccc(F)cn2)cc2c(N[C@H](C)c3noc(C)n3)ncnc12 [oxalate] , output reported Solubility.
A: 90 µg/mL

====

measurementNotes: Dissolution in Fasted State Simulated Gastric Fluid (FaSSGF), manual experiment, 37 °C
Assay type: physicochemical
cond: 37 °C, first experiment, 20 min
Each entry below lists one item and its recorded Solubility value.
Hi! Could you send only the number? It should be in µg/mL, unit omitted.

Study these solved cases before continuing.
>>> reportedresult("COc1cc(-c2ccc(F)cn2)cc2c(N[C@H](C)c3noc(C)n3)ncnc12 [saccharinate]")
1090
>>> reportedresult("COc1cc(-c2ccc(F)cn2)cc2c(N[C@H](C)c3noc(C)n3)ncnc12 [free base Form A]")
6840
>>> reportedresult("COc1cc(-c2ccc(F)cn2)cc2c(N[C@H](C)c3noc(C)n3)ncnc12 [oxalate]")
80

Now for a further compound.
Q: Input COc1cc(-c2ccc(F)cn2)cc2c(N[C@H](C)c3noc(C)n3)ncnc12 [fumarate] , output reported Solubility.
A: 3350

====

measurementNotes: Dissolution in simulated oral fluids (FaSSGF, FaSSIF, FeSSIF), DISS Profiler, 37 °C, 24 hours
Assay type: physicochemical
cond: fessif; read-out: Solubility by UPLC/UV/MS at the end of the experiment
Counter-ions that a name gives are not always drawn.
measuredEndpoint: solubility at 24 h (µg/mL)
Hi! Could you send only the number? It should be in µg/mL, unit omitted.

Q: Input COc1cc(-c2ccc(F)cn2)cc2c(N[C@H](C)c3noc(C)n3)ncnc12 [mesylate salt Form 2] , output reported solubility at 24 h.
A: 170

====

measurementNotes: Dissolution in Fasted State Simulated Gastric Fluid (FaSSGF), manual experiment, 37 °C
Type: physicochemical
cond: 37 °C, second experiment, 30 min
Each entry below lists one item and its recorded Solubility value.
Hi! Could you send only the number? It should be in mg/mL, unit omitted.

Study these solved cases before continuing.
>>> reportedresult("COc1cc(-c2ccc(F)cn2)cc2c(N[C@H](C)c3noc(C)n3)ncnc12 [oxalate]")
11.70
>>> reportedresult("COc1cc(-c2ccc(F)cn2)cc2c(N[C@H](C)c3noc(C)n3)ncnc12 [tosylate]")
4.86
>>> reportedresult("COc1cc(-c2ccc(F)cn2)cc2c(N[C@H](C)c3noc(C)n3)ncnc12 [camphorsulfonate]")
11.84
>>> reportedresult("COc1cc(-c2ccc(F)cn2)cc2c(N[C@H](C)c3noc(C)n3)ncnc12 [phosphate]")
14.85
>>> reportedresult("COc1cc(-c2ccc(F)cn2)cc2c(N[C@H](C)c3noc(C)n3)ncnc12 [fumarate]")
5.76

Q: Input COc1cc(-c2ccc(F)cn2)cc2c(N[C@H](C)c3noc(C)n3)ncnc12 [free base Form A] , output reported Solubility.
A: 11.89

Q: Input COc1cc(-c2ccc(F)cn2)cc2c(N[C@H](C)c3noc(C)n3)ncnc12 [saccharinate] , output reported Solubility.
A: 0.87

Q: Input COc1cc(-c2ccc(F)cn2)cc2c(N[C@H](C)c3noc(C)n3)ncnc12 [mandelate] , output reported Solubility.
A: 9.30

====

Each entry below lists one item and its recorded Solubility value.
measurementNotes: Dissolution in Fasted State Simulated Gastric Fluid (FaSSGF), manual experiment, 37 °C
Assay type: physicochemical
cond: 37 °C, second experiment, 15 min
Hi! Could you send only the number? It should be in mg/mL, unit omitted.

Study these solved cases before continuing.
>>> reportedresult("COc1cc(-c2ccc(F)cn2)cc2c(N[C@H](C)c3noc(C)n3)ncnc12 [fumarate]")
4.98
>>> reportedresult("COc1cc(-c2ccc(F)cn2)cc2c(N[C@H](C)c3noc(C)n3)ncnc12 [oxalate]")
10.71
>>> reportedresult("COc1cc(-c2ccc(F)cn2)cc2c(N[C@H](C)c3noc(C)n3)ncnc12 [phosphate]")
15.21

Now for a further compound.
Q: Input COc1cc(-c2ccc(F)cn2)cc2c(N[C@H](C)c3noc(C)n3)ncnc12 [saccharinate] , output reported Solubility.
A: 0.80

meta.source: patent US20260356826A1
